- System: P. aeruginosa ATCC 27853
- Protocol: Neutropenic mouse bloodstream infection model
- Assay type: in vivo
- Run Conditions: single IV dose 4 mg/kg, 4 h
Residues, ends and D or L forms follow the SMILES beside them.
This section presents molecules with their documented Log10 CFU/mL blood at 4 h, Mean values.
Quantity Kind: Log10 CFU/mL blood at 4 h, Mean (Log10 CFU/mL blood)

{"columns": ["Molecule", "Assayed Target", "Observed Value"],
 "data": [
  ["CCCCCCCC(=O)N[C@@H](CCN)C(=O)N[C@H](C(=O)N[C@@H](CCCN)C(=O)N[C@H]1CCNC(=O)[C@H]([C@@H](C)O)NC(=O)[C@H](CCN)NC(=O)[C@H](CCN)NC(=O)[C@H]([C@@H](C)O)NC(=O)[C@@H](CC(C)C)NC(=O)[C@H](CCN)NC1=O)[C@@H](C)O [Lipopeptide F252] (HELM PEPTIDE1{[CCCCCCCC(=O)[*:2]].[Dab].T.[Orn].[Dab].[Dab].[dL].T.[Dab].[Dab].T}$PEPTIDE1,PEPTIDE1,5:R3-11:R2$$$V2.0)", "P. aeruginosa ATCC 27853", 5.46],
  ["CCCCCCCC(=O)N[C@@H](CCN)C(=O)N[C@H](C(=O)N[C@@H](CCN)C(=O)N[C@H]1CCNC(=O)[C@H]([C@@H](C)O)NC(=O)[C@H](CCN)NC(=O)[C@H](CCN)NC(=O)[C@H]([C@@H](C)O)NC(=O)[C@@H](CC(C)C)NC(=O)[C@H](CCN)NC1=O)[C@@H](C)O [Lipopeptide F100] (HELM PEPTIDE1{[CCCCCCCC(=O)[*:2]].[Dab].T.[Dab].[Dab].[Dab].[dL].T.[Dab].[Dab].T}$PEPTIDE1,PEPTIDE1,5:R3-11:R2$$$V2.0)", "P. aeruginosa ATCC 27853", 4.44]
]}

---

- Test system: P. aeruginosa ATCC 27853
- Protocol: Neutropenic mouse bloodstream infection model
- Assay type: in vivo
- Run Conditions: single IV dose 4 mg/kg, 4 h, treated minus control, mean of replicates; 4 mg/kg
Residues, ends and D or L forms follow the SMILES beside them.
One threshold, -2 log10 CFU/mL blood, splits the recorded Δlog10 CFU/mL blood (mean) values: lower ones are 1 (yes), equal or higher ones are 0 (no).

{"columns": ["Compound", "Assayed Target", "Class Label"],
 "data": [
  ["CCCCCCCCC(=O)N[C@@H](CCN)C(=O)N[C@H](C(=O)N[C@@H](CN)C(=O)N[C@H]1CCNC(=O)[C@H]([C@@H](C)O)NC(=O)[C@H](CCN)NC(=O)[C@H](CCN)NC(=O)[C@H](CC)NC(=O)[C@@H](CC(C)C)NC(=O)[C@H](CCN)NC1=O)[C@@H](C)O [Lipopeptide F314] (HELM PEPTIDE1{[CCCCCCCCC(=O)[*:2]].[Dab].T.[NC[C@H](N[*:1])C(=O)[*:2]].[Dab].[Dab].[dL].[Abu].[Dab].[Dab].T}$PEPTIDE1,PEPTIDE1,5:R3-11:R2$$$V2.0)", "P. aeruginosa ATCC 27853", "1 (yes)"],
  ["CCCCCCCC(=O)N[C@@H](CCN)C(=O)N[C@H](C(=O)N[C@@H](CN)C(=O)N[C@H]1CCNC(=O)[C@H]([C@@H](C)O)NC(=O)[C@H](CCN)NC(=O)[C@H](CCN)NC(=O)[C@H](CC)NC(=O)[C@@H](CC(C)C)NC(=O)[C@H](CCN)NC1=O)[C@@H](C)O [Lipopeptide F287] (HELM PEPTIDE1{[CCCCCCCC(=O)[*:2]].[Dab].T.[NC[C@H](N[*:1])C(=O)[*:2]].[Dab].[Dab].[dL].[Abu].[Dab].[Dab].T}$PEPTIDE1,PEPTIDE1,5:R3-11:R2$$$V2.0)", "P. aeruginosa ATCC 27853", "1 (yes)"],
  ["CC[C@@H]1NC(=O)[C@@H](CC(C)C)NC(=O)[C@H](CCN)NC(=O)[C@@H](NC(=O)[C@H](CN)NC(=O)[C@@H](NC(=O)[C@H](CCN)NC(=O)c2c(Cl)cccc2Cl)[C@@H](C)O)CCNC(=O)[C@H]([C@@H](C)O)NC(=O)[C@H](CCN)NC(=O)[C@H](CCN)NC1=O [Lipopeptide F360] (HELM PEPTIDE1{[O=C(c1c(Cl)cccc1Cl)[*:2]].[Dab].T.[NC[C@H](N[*:1])C(=O)[*:2]].[Dab].[Dab].[dL].[Abu].[Dab].[Dab].T}$PEPTIDE1,PEPTIDE1,5:R3-11:R2$$$V2.0)", "P. aeruginosa ATCC 27853", "0 (no)"],
  ["CC[C@@H]1NC(=O)[C@@H](CC(C)C)NC(=O)[C@H](CCN)NC(=O)[C@@H](NC(=O)[C@H](CN)NC(=O)[C@@H](NC(=O)[C@H](CCN)NC(=O)c2ccc(Cl)cc2F)[C@@H](C)O)CCNC(=O)[C@H]([C@@H](C)O)NC(=O)[C@H](CCN)NC(=O)[C@H](CCN)NC1=O [Lipopeptide F448] (HELM PEPTIDE1{[O=C(c1ccc(Cl)cc1F)[*:2]].[Dab].T.[NC[C@H](N[*:1])C(=O)[*:2]].[Dab].[Dab].[dL].[Abu].[Dab].[Dab].T}$PEPTIDE1,PEPTIDE1,5:R3-11:R2$$$V2.0)", "P. aeruginosa ATCC 27853", "1 (yes)"],
  ["CC[C@@H]1NC(=O)[C@@H](CC(C)C)NC(=O)[C@H](CCN)NC(=O)[C@@H](NC(=O)[C@H](CN)NC(=O)[C@@H](NC(=O)[C@H](CCN)NC(=O)c2ccccc2)[C@@H](C)O)CCNC(=O)[C@H]([C@@H](C)O)NC(=O)[C@H](CCN)NC(=O)[C@H](CCN)NC1=O [Lipopeptide F379] (HELM PEPTIDE1{[O=C(c1ccccc1)[*:2]].[Dab].T.[NC[C@H](N[*:1])C(=O)[*:2]].[Dab].[Dab].[dL].[Abu].[Dab].[Dab].T}$PEPTIDE1,PEPTIDE1,5:R3-11:R2$$$V2.0)", "P. aeruginosa ATCC 27853", "1 (yes)"],
  ["CCCCCCCC(=O)N[C@@H](CCN)C(=O)N[C@H](C(=O)N[C@@H](CCN)C(=O)N[C@H]1CCNC(=O)[C@H]([C@@H](C)O)NC(=O)[C@H](CCN)NC(=O)[C@H](CCN)NC(=O)[C@H](C(C)C)NC(=O)[C@@H](CC(C)C)NC(=O)[C@H](CCN)NC1=O)[C@@H](C)O [Lipopeptide F225] (HELM PEPTIDE1{[CCCCCCCC(=O)[*:2]].[Dab].T.[Dab].[Dab].[Dab].[dL].V.[Dab].[Dab].T}$PEPTIDE1,PEPTIDE1,5:R3-11:R2$$$V2.0)", "P. aeruginosa ATCC 27853", "1 (yes)"],
  ["CCCCCCCC(=O)N[C@@H](CCN)C(=O)N[C@H](C(=O)N[C@@H](CCN)C(=O)N[C@H]1CCNC(=O)[C@H]([C@@H](C)O)NC(=O)[C@H](CCN)NC(=O)[C@H](CCN)NC(=O)[C@H](CO)NC(=O)[C@@H](CC(C)C)NC(=O)[C@H](CCN)NC1=O)[C@@H](C)O [Lipopeptide F227] (HELM PEPTIDE1{[CCCCCCCC(=O)[*:2]].[Dab].T.[Dab].[Dab].[Dab].[dL].S.[Dab].[Dab].T}$PEPTIDE1,PEPTIDE1,5:R3-11:R2$$$V2.0)", "P. aeruginosa ATCC 27853", "0 (no)"],
  ["CCCCCCCC(=O)N[C@@H](CCN)C(=O)N[C@H](C(=O)N[C@@H](CN)C(=O)N[C@H]1CCNC(=O)[C@H]([C@@H](C)O)NC(=O)[C@H](CCN)NC(=O)[C@H](CCN)NC(=O)[C@H](C)NC(=O)[C@@H](CC(C)C)NC(=O)[C@H](CCN)NC1=O)[C@@H](C)O [Lipopeptide F271] (HELM PEPTIDE1{[CCCCCCCC(=O)[*:2]].[Dab].T.[NC[C@H](N[*:1])C(=O)[*:2]].[Dab].[Dab].[dL].A.[Dab].[Dab].T}$PEPTIDE1,PEPTIDE1,5:R3-11:R2$$$V2.0)", "P. aeruginosa ATCC 27853", "1 (yes)"]
]}

---

- Type: in vitro ADME
- Run Conditions: mouse, plasma
Residues, ends and D or L forms follow the SMILES beside them.

{"columns": ["Molecule", "fraction unbound"],
 "data": [
  ["CC[C@@H]1NC(=O)[C@@H](CC(C)C)NC(=O)[C@H](CCN)NC(=O)[C@@H](NC(=O)[C@H](CN)NC(=O)[C@@H](NC(=O)[C@H](CCN)NC(=O)c2ccc(Cl)cc2Cl)[C@@H](C)O)CCNC(=O)[C@H]([C@@H](C)O)NC(=O)[C@H](CCN)NC(=O)[C@H](CCN)NC1=O [Lipopeptide F365] (HELM PEPTIDE1{[O=C(c1ccc(Cl)cc1Cl)[*:2]].[Dab].T.[NC[C@H](N[*:1])C(=O)[*:2]].[Dab].[Dab].[dL].[Abu].[Dab].[Dab].T}$PEPTIDE1,PEPTIDE1,5:R3-11:R2$$$V2.0)", 0.64]
]}

Every entry's value here was drawn from paper PMC8956739.
